# assayMethodText: NCI Yeast Anticancer Drug Screen. Data for the cln2 rad14 strain (AID 165);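 also: 0% = growth equal to vehicle treated cultures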
# conditionSummary: S. cerevisiae cln2 rad14 strain, at 5.0 µM (retest, dose inferred, filed as 0.5), hits give high values
The panel holds about 79,000 compounds, 15% with a hit somewhere; the sample as a whole holds those more often. Activity calls are given as the source filed them. Rule as the data show it: active = growth inhibition above about 70%; inactive = the rest.
measuredParameter: growth inhibition

Tell me growth inhibition reported for CCOC(=O)C1C(c2cccc(OC)c2O)c2cc3c(cc2OC1(C)N1CCCC1)OCO3 (stereo unspecified)
-5% (inactive)

Tell me growth inhibition reported for CCN(CC)c1ccc(N=Nc2ccc(Br)cn2)c(O)c1
-2% (inactive)

Tell me growth inhibition reported for CCCCCCCCNc1nc(Cl)nc2c1cnn2C
-4% (inactive)

Tell me growth inhibition reported for C=CCOCCC=O
4% (inactive)

Tell me growth inhibition reported for CC1C(=O)C(Br)CC2C1(C)CCC1C2(C)CCC2(C)C3CC(C)(C)CCC3(C)CCC12C (stereo unspecified)
7% (inactive)

Tell me growth inhibition reported for CCOC(=O)/C(=C\c1cccc(Br)c1)C(C)=O
45% (inactive)
